experiment: Test 2: Pharmacokinetic test in rats; format: in vivo, rat; conditions: rat, blood, iv, 10 mg/kg, Rat-1, i.v. 10 mg/kg, 45 min; read-out: Blood concentration
parameter: concentration at 0.75 h (ng/mL)
Entry rule: numbers only, all in ng/mL.

[ask] Entry under review: CN(C(=O)[C@H](Cc1ccc(C(=N)NN)cc1)NS(=O)(=O)c1ccc2ccccc2c1)C1CCCC1 [Example 1] . Reported concentration at 0.75 h?
[reply] 355

---

experiment: Test 2: Pharmacokinetic test in rats; type: in vivo, rat; conditions: rat, blood, iv, 10 mg/kg, Rat-2, i.v. 10 mg/kg, 120 min; read-out: Blood concentration
parameter: concentration at 2 h (ng/mL)
Enter your answer as a number in ng/mL; do not include the unit.

[ask] If you can, please state the reported concentration at 2 h value of CN(C(=O)[C@H](Cc1ccc(C(=N)NN)cc1)NS(=O)(=O)c1ccc2ccccc2c1)C1CCCC1 .
[reply] 97

---

test: Test 2: Pharmacokinetic test in dogs; format: in vivo, dog; settings: dog, blood, iv, 10 mg/kg, Dog-2, i.v. 10 mg/kg, 90 min; read-out: Blood concentration
parameter: concentration at 1.5 h (ng/mL)
Supply the numeric figure in ng/mL, leaving out any unit text.

[ask] // lookup concentration at 1.5 h for CN(C(=O)[C@H](Cc1ccc(C(=N)NN)cc1)NS(=O)(=O)c1ccc2ccccc2c1)C1CCCC1
[reply] 501

---

test: Test 2: Pharmacokinetic test in dogs; type: in vivo, dog; settings: dog, blood, iv, 10 mg/kg, Dog-2, i.v. 10 mg/kg, 20 min; read-out: Blood concentration
parameter: concentration at 20 min
Please answer using the number first and the unit second.

[ask] What value of concentration at 20 min has been reported for the following molecule? CN(C(=O)[C@H](Cc1ccc(C(=N)NN)cc1)NS(=O)(=O)c1ccc2ccccc2c1)C1CCCC1
[reply] 1800 ng/mL

---

experiment: Test 2: Pharmacokinetic test in dogs; assay type: in vivo, dog; conditions: dog, blood, po, 10 mg/kg, Dog-2, oral 10 mg/kg, 90 min; read-out: Blood concentration
parameter: concentration at 1.5 h (ng/mL)
Give just the number in ng/mL; leave the unit off.

[ask] For CN(C(=O)[C@H](Cc1ccc(C(=N)NN)cc1)NS(=O)(=O)c1ccc2ccccc2c1)C1CCCC1 , what is its reported concentration at 1.5 h?
[reply] 935

---

assay: Test 2: Pharmacokinetic test in rats; assay type: in vivo, rat; conditions: rat, blood, iv, 10 mg/kg, Rat-2, i.v. 10 mg/kg, 3 min; read-out: Blood concentration
parameter: concentration at 0.05 h (µg/mL)
# value in µg/mL; strip the unit string

[ask] Report concentration at 0.05 h for CN(C(=O)[C@H](Cc1ccc(C(=N)NN)cc1)NS(=O)(=O)c1ccc2ccccc2c1)C1CCCC1 please.
[reply] 6.77

---

assay: Test 2: Pharmacokinetic test in rats; format: in vivo, rat; details: rat, blood, iv, 10 mg/kg, Rat-3, i.v. 10 mg/kg, 5 min; read-out: Blood concentration
parameter: concentration at 5 min (µg/mL)
Hi! Could you send only the number? It should be in µg/mL, unit omitted.

[ask] Fill in: concentration at 5 min of CN(C(=O)[C@H](Cc1ccc(C(=N)NN)cc1)NS(=O)(=O)c1ccc2ccccc2c1)C1CCCC1 is ___
[reply] 4.22
